Values compiled from the Human Domainome abundance scans (Beltran et al. 2025).

B1: Tyrosine-protein kinase Lck, residues 63 to 120; numbered along this chain, P06239 (parent)
chain: DNLVIALHSYEPSHDGDLGFEKGEQLRILEQSGEWWKAQSLTTGQEGFIPFNFVAKAN

# Variants of: B1
# Assay Details: abundance fitness (aPCA) (normalised: wild type 0, dead -1); higher = more abundant; growth selection in yeast, the domain comes from the species named
# Setup Conditions: Homo sapiens
Assay Readout: abundance fitness
One number for each entry.

Worked set:
P12F = -1.08
N2L = -0.185
P50T = -0.851

Count: 6. Required value per item: abundance fitness.
1. G47V
2. S13M
3. G23D
4. A57S
5. F53T
6. W36K

1. -0.807
2. -0.026
3. -0.477
4. -0.098
5. -0.214
6. -0.521

Count: 5. Required value per item: abundance fitness.
1. L3I
2. E46K
3. H14F
4. S40F
5. G47P

0.091
-0.05
-0.187
-0.908
-0.687
